Reference source for all entries: the NIST ThermoML archive (doi:10.1016/j.fluid.2016.07.022)

Details: 293.15 K; 101.33 kPa; Liquid; Falling or rolling sphere viscometry
Outcome: T for viscosity of at least 500 mPa·s; F for anything lower.

Sample answers from the record:
compound	class.name
CCC(=O)[O-].CCCC[NH2+]CCO [N-(2-hydroxyethyl)butan-1-aminium propionate]	T
CCCC(=O)[O-].CCCC[NH2+]CCO [N-(2-hydroxyethyl)butan-1-aminium butyrate]	T
CCCC[NH2+]CCO.O=C[O-] [N-(2-hydroxyethyl)butan-1-aminium formate]	F

Asked: # bool: viscosity of CCCCC(=O)[O-].CCCC[NH2+]CCO [N-(2-hydroxyethyl)butan-1-aminium pentanoate] >= 500 mPa·s
Given back: T

Asked: Is reported viscosity greater than or equal to 500 mPa·s here: CC(=O)[O-].CCCC[NH2+]CCO [N-(2-hydroxyethyl)butan-1-aminium acetate]
Given back: T

* * *

Provide the reported viscosity of each item.
Details: 318.15 K; 101.33 kPa; Liquid; Falling or rolling sphere viscometry
Numbers only, in mPa·s.

compound	viscosity, mPa·s
CCCCC(=O)[O-].CCCC[NH2+]CCO [N-(2-hydroxyethyl)butan-1-aminium pentanoate]	177.1
CCCC(=O)[O-].CCCC[NH2+]CCO [N-(2-hydroxyethyl)butan-1-aminium butyrate]	158.1
CCCC[NH2+]CCO.O=C[O-] [N-(2-hydroxyethyl)butan-1-aminium formate]	96.9
CC(=O)[O-].CCCC[NH2+]CCO [N-(2-hydroxyethyl)butan-1-aminium acetate]	119

Now let's try a different one.
Asked: viscosity for CCC(=O)[O-].CCCC[NH2+]CCO [N-(2-hydroxyethyl)butan-1-aminium propionate] ?
Given back: 155

* * *

Conditions: 323.15 K; 101.33 kPa; Liquid; Vibrating tube method
Field: mass density. Provide a value for each of the compounds that follow.
Answers are plain numbers, in kg/m3.

compound	recorded.measurement
CCCC(=O)[O-].CCCC[NH2+]CCO [N-(2-hydroxyethyl)butan-1-aminium butyrate]	962

Record mass density for all entries; do not skip any.
1. CCCCC(=O)[O-].CCCC[NH2+]CCO [N-(2-hydroxyethyl)butan-1-aminium pentanoate]
2. CC(=O)[O-].CCCC[NH2+]CCO [N-(2-hydroxyethyl)butan-1-aminium acetate]
3. CCCC[NH2+]CCO.O=C[O-] [N-(2-hydroxyethyl)butan-1-aminium formate]
4. CCC(=O)[O-].CCCC[NH2+]CCO [N-(2-hydroxyethyl)butan-1-aminium propionate]

Given back:
1: 948.5; 2: 1000.3; 3: 1020.1; 4: 983.6

* * *

What viscosity was measured for each of the following?
Settings: 303.15 K; 101.33 kPa; Liquid; Falling or rolling sphere viscometry
One number for each entry, in mPa·s.

compound	unit.string	viscosity
CCCC(=O)[O-].CCCC[NH2+]CCO [N-(2-hydroxyethyl)butan-1-aminium butyrate]	mPa·s	435.9
CC(=O)[O-].CCCC[NH2+]CCO [N-(2-hydroxyethyl)butan-1-aminium acetate]	mPa·s	295.4
CCCCC(=O)[O-].CCCC[NH2+]CCO [N-(2-hydroxyethyl)butan-1-aminium pentanoate]	mPa·s	505.8
CCC(=O)[O-].CCCC[NH2+]CCO [N-(2-hydroxyethyl)butan-1-aminium propionate]	mPa·s	385.1

Please examine the following record next.
Asked: Suppose we examine the compound CCCC[NH2+]CCO.O=C[O-] [N-(2-hydroxyethyl)butan-1-aminium formate] ; what viscosity value has been reported?
Given back: 234.2
